# Assay: Primary qHTS for delayed death inhibitors of the malarial parasite plastid, 96 hour incubation
# Condition Details: P. falciparum luciferase reporter growth; series mostly up to 28.7 µM
Hit rate of the full screen: of about 320,000 compounds, about 22,000 (6.9%) were called active. Another 27% or so got no clear call; they are omitted. Calls come from the whole dose curve; as a rule, active = well fitted inhibition curve with a large enough effect; inconclusive = small, poorly fitted or top-dose-only effect, or another doubt; inactive = no such curve, though single readings can be large or run the other way. Only a selection was taken, and actives are over-represented in it overall.
Please state which outcome applies, choosing from active, inactive

Cc1cccc(N2CCN(C(=O)CCS(=O)(=O)c3ccc4c(c3)NC(=O)C(C)S4)CC2)c1C (stereo not drawn) | inactive
COC(=O)c1ccc(NC(=O)c2cc3c(CO)cnc(C)c3oc2=Nc2cccc(C(N)=O)c2)cc1 | inactive
CCCOc1ccc(Cc2c(O)nc(N)[nH]c2=O)cc1C | inactive
CCN(CC(=O)Nc1ccccc1OC)C(=O)CC1CC2CCC1C2 (stereo not drawn) | inactive
Cc1ccc(N2C(=O)CC(Nc3cccc4ccccc34)C2=O)cc1 (stereo not drawn) | inactive

Q. I'd appreciate the recorded outcome for N#Cc1cc([N+](=O)[O-])ccc1NCC1CCCO1 (stereo not drawn) from this test.
A. inactive

Q. I'd appreciate the recorded outcome for COc1ccc(S(=O)(=O)N2CCCC(C(=O)NCCCn3ccnc3)C2)cc1OC (stereo not drawn) from this test.
A. inactive

Q. I'd appreciate the recorded outcome for Cc1ccc(CSc2nsc(C)c2C#N)cc1 from this test.
A. inactive

Q. I'd appreciate the recorded outcome for Nc1nnc2c(C(F)(F)F)nc3ccccc3n12 from this test.
A. inactive

Q. I'd appreciate the recorded outcome for COc1ccccc1NC(=O)CCC(=O)N1CC(C)Oc2ccc(C)cc21 (stereo not drawn) from this test.
A. inactive

Q. I'd appreciate the recorded outcome for Cc1ccc(S(=O)(=O)NCCCn2ccnc2)cc1C(=O)NC(C)C from this test.
A. inactive

Q. I'd appreciate the recorded outcome for O=C(CSc1nnc(-c2cnccn2)n1Cc1ccco1)c1ccc(Cl)c(Cl)c1 from this test.
A. inactive

Q. I'd appreciate the recorded outcome for CCOc1ccc(NC(=O)CN(C)C(=O)CSc2ccccc2)cc1OCC from this test.
A. inactive

Q. I'd appreciate the recorded outcome for N#Cc1cccc(CSc2ncnc(N)n2)c1 from this test.
A. inactive

Q. I'd appreciate the recorded outcome for Cn1c(CC2Sc3ccccc3NC2=O)nnc1SCC(=O)c1ccc(Cl)cc1 (stereo not drawn) from this test.
A. inactive

Q. I'd appreciate the recorded outcome for CN(C)S(=O)(=O)c1cccc(NC(=O)COC(=O)/C=C/c2cccs2)c1 from this test.
A. inactive

Q. I'd appreciate the recorded outcome for CN(C)S(=O)(=O)c1cccc(NC(=O)COC(=O)c2cc(=O)[nH]c(=O)[nH]2)c1 from this test.
A. inactive

Q. I'd appreciate the recorded outcome for CCOC(=O)c1cnc(COc2ccccc2Cl)[nH]c1=O from this test.
A. inactive

Q. I'd appreciate the recorded outcome for CCOc1ccc(S(=O)(=O)NCCCn2ccnc2)cc1NC(C)=O from this test.
A. active

Q. I'd appreciate the recorded outcome for C(=C\c1ccccc1)/CSc1nnc(-c2cccnc2)n1Cc1ccco1 from this test.
A. active

Q. I'd appreciate the recorded outcome for CCOC(=O)Cc1csc(NC(=O)CSc2nnc(-c3cccnc3)n2Cc2ccco2)n1 from this test.
A. inactive

Q. I'd appreciate the recorded outcome for CCN(CC)C(=O)CC1(c2ccccc2OC)CCOC(C(C)C)C1 (stereo not drawn) from this test.
A. active

Q. I'd appreciate the recorded outcome for COc1ccccc1OCc1ccc(C(=O)NC(C)c2ccccc2)o1 (stereo not drawn) from this test.
A. inactive
